Molecular target: RR2 (PceP), OmpR-family response regulator of TCS2 (Sulfurospirillum halorespirans (DSM 13726?)) (UniProt A0A1D7TJV3)
Sequence: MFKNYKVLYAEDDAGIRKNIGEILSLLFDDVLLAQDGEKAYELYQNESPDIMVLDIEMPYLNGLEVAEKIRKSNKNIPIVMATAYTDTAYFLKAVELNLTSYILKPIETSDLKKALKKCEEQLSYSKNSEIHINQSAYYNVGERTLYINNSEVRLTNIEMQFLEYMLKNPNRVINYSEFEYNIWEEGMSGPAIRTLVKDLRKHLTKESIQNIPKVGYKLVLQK
Test: EMSA
Conditions: EMSA: 10 mM HEPES pH 7.6, 2 mM MgCl2, 200 mM KCl, 0.1 mM EDTA, 5 mM DTT, 10% glycerol, 50 ug/ul Ficoll 70, 250 ng poly(dI/dC), 2.5 pmol DNA in 15 ul, room …

# Item Sequence, binding
records = [
    ("CATGTGTGAACCTATCCTATAGTTTATAACTATGATTCTATCAGATATTTTGTTAAAAATTAACTTAAAAGAGTAAAAATTATCTATTTAATAGTTACCCTATATTTCACCTATAAGTTACCTATAAATATTCATAAAATTCAAGGTTCTCTCTTTATTGCACACAAAGTTACTACAAGTTTTATGTACT (double strand) [pTCS2/SHALO_1504 intergenic region (pTCS2)]", "binds"),
]

====

Biological target: RR2 (PceP), OmpR-family response regulator of TCS2 (Sulfurospirillum halorespirans (DSM 13726?)) (UniProt A0A1D7TJV3)
Sequence: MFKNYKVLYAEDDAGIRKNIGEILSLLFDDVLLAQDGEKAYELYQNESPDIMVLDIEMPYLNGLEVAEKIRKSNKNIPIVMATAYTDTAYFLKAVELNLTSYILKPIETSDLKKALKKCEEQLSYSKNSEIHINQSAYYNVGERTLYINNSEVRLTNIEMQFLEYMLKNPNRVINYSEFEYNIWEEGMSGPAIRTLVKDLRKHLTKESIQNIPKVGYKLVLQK
Experiment: EMSA
Conditions: EMSA: 10 mM HEPES pH 7.6, 2 mM MgCl2, 200 mM KCl, 0.1 mM EDTA, 5 mM DTT, 10% glycerol, 50 ug/ul Ficoll 70, 250 ng poly(dI/dC), 2.5 pmol DNA in 15 ul, room …

# Item Sequence, binding
records = [
    ("ATTGTCTGATATATTGACAAAATCTTTATAAAATCTCCAAAAATATAAAAAAAGAAAAGTATTTACTTATTACTTCGTAAATATTATTAACTTTCATTATTTTAAAATTAAAATCTATATCTTTCCTATAACAAAGCTATAACTTTTGTATATCATTCTTAAAATGTGAAATTAATTCATAAACACATTAAAAAATAAATAACTGTACTTGGGGTTATTTATAAAAGGTTACAAGAAGGTTTGAATACCACTGTGTAAGTTGTTACTCTTGGTATTTTTTAAGGAGGAAGTATG (double strand) [ppceAB promoter]", "binds"),
    ("TTCACCTATAAGTTACCTATAAATATTCATAAAATTCAAGGTTCTCTCTTTATTGCACACAAAGTTACTACAAGTTTTATGTACT (double strand) [pTCS2/SHALO_1504 f2 (first CCTATA incomplete)]", "binds more weakly"),
    ("CTGCATAGAGTATTGTATAAGAAGCGAGCATGTTAAATCCCTGAAATTTTATGAATAATGTACGTATTATAAAAAAAGAAATATAGAACTTGTAGATAAAAAATATTTTCCTTCTATTTTAGTTATACAACGGTTGCATAAGTTTTAAATACAATTTTCATAATAAGTCAGATGTTAAATGGTTGTACTTGGGATCATTTAATTAAAGGTTACAAGAAGGTTTAAAATCATTATCATGATTGTATGGTAGATGATTTTTTAAGGAGTAAATATG (double strand) [prdhAB promoter]", "binds more weakly"),
]
